B1: tRNA (parent)
chain: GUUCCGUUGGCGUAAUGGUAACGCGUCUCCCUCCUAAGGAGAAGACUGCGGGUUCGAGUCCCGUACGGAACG

Variants of: B1
Assay: yeast fitness relative to wild type (ratio to wild type); higher = fitter; tRNA-Arg(CCU), competitive growth, 37 C, YPD
Fewer inactive variants are shown than the library holds.
The threshold is inclusive: yeast fitness of exactly 1 counts as True; values below receive False.

Input: Kindly determine if yeast fitness recorded for G6C U28C C30A G39A is above or exactly 1.
Output: False

Input: Also U13A G25C , if possible.
Output: True

Input: Proceed to U28A C46U A70G
Output: False

Input: Try this variant next: A45G G56A
Output: True

Input: Note, next up: C30G A37U C61U
Output: False

Input: Now the same for U19C C31A
Output: False

Input: And then C34G C49G G68C , what is it?
Output: False

Input: Now try C31U G39C G52C .
Output: False

Input: How about C24U A37G A45U A69C ?
Output: False

Input: Next up: C11A C61U A70C
Output: False
